Numbers sourced from PubChem BioAssay (NCI).

- Tested on: RXF 393 renal
- protocol_description: NCI-60 one-dose screen, 48 h (100 = growth as untreated, 0 = no growth, -100 = all killed)
- condition_info: 10 µM unless noted
About 83,000 compounds went through this panel and 20% of them were active in at least one assay; those are over-represented in the sample as a whole.

molecule | unit_abbrev | growth
Cc1ccc(C2CC(c3cccc(Nc4ccncc4)c3)=Nc3c(N)nc(N)nc3N2)cc1 (stereo unspecified) | % | 55.6
O=C(/C=C/c1ccccc1)c1cccc2ccccc12 | % | 12.4
N#Cc1ccc(/C=C/c2cn(-c3ccccc3)nc2-c2cccc([N+](=O)[O-])c2)cc1 | % | 67.1
O=S(O)c1cc(Cl)cc(Cl)c1OCc1ccccc1 | % | 97.3
COc1cc(C=C2C(=O)NC(=S)NC2=O)cc(CN2CCCC2)c1O | % | 103
COc1ccc(N/N=C/c2cn(-c3ccc(C(=O)O)cc3)nc2-c2cc3ccccc3oc2=O)cc1 | % | 111
COc1ccc(-c2cc(C(=O)N3N=C(c4ccc(N)cc4)CC3c3ccc(Cl)cc3)c3ccccc3n2)cc1 (stereo unspecified) | % | 21.6
Cc1nc([P+](c2ccccc2)(c2ccccc2)c2ccccc2)c(N2CCCCC2)o1 | % | 67
CS(=O)(=O)c1ccc(-c2nc3ccccc3n2CC(=O)N/N=C/c2ccccc2)cc1 | % | 116
O=C(N/N=C/c1ccc(Cl)cc1)c1ccc(NC(=O)c2ccccn2)cc1 | % | 64.7
COc1ccc(-c2cc(-c3cn(-c4cccc(Cl)c4)nc3-c3ccc(OC)cc3)on2)cc1 | % | 102
CN(C)Cc1cc(C(C)(C)C)cc(Br)c1O | % | 93.9
CCCCCc1ccc(S(=O)(=O)Nc2cc(-c3csc(NC(C)=O)n3)ccc2N2CCN(C)CC2)cc1 | % | 33.3
Nc1cc(-c2ccc(Cl)cc2)nn1-c1nnc(/C=C/c2ccco2)c(=O)[nH]1 | % | 67.8
O=C1NC(=O)C(c2coc3cc(Br)ccc23)=C1c1c[nH]c2ccccc12 | % | 75.3
ClC(Cl)c1nc(-c2ccccc2)n2nc(-c3ccccc3)cc2n1 | % | -68
Cc1cc(C)c2c(c1)N(C)c1ncnc(-n3c(C)nc4cc(C)ccc43)c1CC2C (stereo unspecified) | % | -10.4
CS(=O)(=O)Nc1cc(-c2ccc3ncnc(Nc4ccc(F)c(Cl)c4)c3c2)ccc1Cl | % | 22
CCN(CC)CCOc1ccc2ccc(=O)oc2c1 | % | 103
CCN(CC)CCn1c2ccc(OC)cc2c2sc3cc(O)ccc3c(=O)c21 | % | 27.5
O=C(CCCCCCCC(=O)N1CCCCC1)N1CCCCC1 | % | 123
